Below, each entry is listed with its recorded CAL-51 Prolif Ymin.
- Test system: CAL-51 cells
- methodNotes: CAL-51 Cell Proliferation Assay
- Type: cell-based
- protocolConditions: minimal percent of DMSO control observed in the concentrations tested (Ymin-obs), 120 hours
- Source text: CAL-51 cells were obtained from Bristol Myers Squibb internal cell banks (originally sourced from DSMZ-German Collection of Microorganisms and Cell Cultures GmbH, Germany) and cultured in RPMI complete media (RPMI-1640, 10% Fetal Bovine serum, 1× Antibiotic-Antimycotic, and 1× Non-Essential Amino Acids). […] Luminescence data was processed per plate by subtracting reagent-only “blank” well luminescence from all measured values and calculating a percent of DMSO control value for each treatment well. […]

compound	reportedValue
O=C1CCC(N2Cc3cc(Cn4ncc5c(-c6ncc(C(F)(F)F)cc6Cl)cc(NC6CC6)nc54)ccc3C2=O)C(=O)N1 (stereo not shown)	39.93

Prompt: Find the measured CAL-51 Prolif Ymin: item `Cc1cc(F)cnc1-c1cc(N2CC[C@H](O)C2)nc2c1cnn2Cc1ccc2c(c1)CN([C@H]1CCC(=O)NC1=O)C2=O` , target or system CAL-51 cells.
Response: 34.48

Prompt: Again, but for `O=C1CC[C@H](N2Cc3cc(Cn4ncc5c(-c6ncc(F)cc6Cl)cc(N6CC(F)C6)nc54)cc(F)c3C2=O)C(=O)N1`
Response: 24.80

Prompt: Again, but for `O=C1CC[C@H](N2Cc3cc(Cn4ncc5c(-c6ccc(F)cc6F)cc(N6CC[C@H](O)C6)nc54)ccc3C2=O)C(=O)N1`
Response: 46.68

Prompt: Again, but for `Cc1cc(C(F)(F)F)ccc1-c1cc(N2CC[C@H](O)C2)nc2c1cnn2Cc1ccc2c(c1)CN([C@H]1CCC(=O)NC1=O)C2=O`
Response: 31.58

Prompt: Again, but for O=C1CCC(N2Cc3c(ccc(Cn4ncc5c(-c6ncc(C(F)(F)F)cc6Cl)cc(N6CC(F)C6)nc54)c3F)C2=O)C(=O)N1 (stereo not shown)
Response: 36.00
